Answer each item with its documented viability, T/C.
# Tested on: DMS 114 tumor spheroids, viability % test/control
# Procedure Summary: Anticancer human tumor DMS 114 cell line growth inhibition
# Details: second compound 0.003 µM; first compound 0.1 µM; active compounds read low; spheroids with HUVEC and MSC
Numbers only here, please. The scale is %.

Provide value of viability, T/C for this record tested with DMS 114 tumor spheroids, viability % test/control: [2H]c1nc(C)nc([2H])c1-c1cc(NC[C@@H](C)c2cccc3c(C(=O)NC)ccnc23)ncn1 + COc1cc2c(cc1O)CCNC21CSC2c3c(OC(C)=O)c(C)c4c(c3C(COC1=O)N1C(O)C3Cc5cc(C)c(OC)c(O)c5C(C21)N3C)OCO4
0.22

Entry CC(C)n1c(=O)n(C)c2cnc3cc(F)c(-c4ccc(OCCCN5CCCCC5)nc4)cc3c21 + COc1cc2c(cc1O)CCNC21CSC2c3c(OC(C)=O)c(C)c4c(c3C(COC1=O)N1C(O)C3Cc5cc(C)c(OC)c(O)c5C(C21)N3C)OCO4 , system DMS 114 tumor spheroids, viability % test/control: what viability, T/C was measured?
0.22

Could you share what viability, T/C was measured for COc1cc(C)[nH]c(=O)c1CN1CCc2c(Cl)cc(C(OC)C3COC3)c(Cl)c2C1=O (stereo not drawn) + COc1cc2c(cc1O)CCNC21CSC2c3c(OC(C)=O)c(C)c4c(c3C(COC1=O)N1C(O)C3Cc5cc(C)c(OC)c(O)c5C(C21)N3C)OCO4 , tested on DMS 114 tumor spheroids, viability % test/control?
0.27

---

# Test system: DMS 114 tumor spheroids, viability % test/control
# Procedure Summary: Anticancer human tumor DMS 114 cell line growth inhibition
# Details: second compound 1 µM; first compound 0.1 µM; active compounds read low; spheroids with HUVEC and MSC
Measure Name: viability, T/C (%)
Supply the numeric figure in %, leaving out any unit text.

Entry under review: Cc1cc(C)c(CNC(=O)c2cc(-c3ccc(CN4CCOCC4)cc3)cc3c2cnn3C2CCCC2)c(=O)[nH]1 + Cn1nnc2c(C(N)=O)ncn2c1=O . Reported viability, T/C?
103

Recorded viability, T/C for [2H]c1nc(C)nc([2H])c1-c1cc(NC[C@@H](C)c2cccc3c(C(=O)NC)ccnc23)ncn1 + Cn1nnc2c(C(N)=O)ncn2c1=O , please?
104

Given CC(C)n1c(=O)n(C)c2cnc3cc(F)c(-c4ccc(OCCCN5CCCCC5)nc4)cc3c21 + Cn1nnc2c(C(N)=O)ncn2c1=O , state its recorded viability, T/C.
100

Can you look up the measured viability, T/C of CC1COCCN1c1cc(-c2ccnn2C)c2ccnc(-c3ccn[nH]3)c2n1 (stereo unspecified) + Cn1nnc2c(C(N)=O)ncn2c1=O for me?
33.9

Consider the molecule shown here: COc1ccc([C@@H](O)c2cc(-c3ncnc4cc(N5CCOCC5)ccc34)c(F)cc2Cl)nn1 + Cn1nnc2c(C(N)=O)ncn2c1=O What is its recorded viability, T/C?
103

Please look up its viability, T/C: COc1cc(C)[nH]c(=O)c1CN1CCc2c(Cl)cc(C(OC)C3COC3)c(Cl)c2C1=O (stereo unspecified) + Cn1nnc2c(C(N)=O)ncn2c1=O
93.3

---

# Tested on: DMS 114 tumor spheroids, viability % test/control
# Procedure Summary: Anticancer human tumor DMS 114 cell line growth inhibition;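 note: luminescence used as a proxy for viable cells; spheroids exposed to compounds for 7 days before read-out; 100% = DMSO vehicle control viability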
# Details: second compound 94.9 pM; first compound 0.949 µM; active compounds read low; spheroids with HUVEC and MSC
Measure Name: viability, T/C (%)
Your answer is read as %, so omit the unit and give the number.

Entry O=C(c1cc(Cc2n[nH]c(=O)c3ccccc23)ccc1F)N1CCN(C(=O)C2CC2)CC1 + COc1cc2c(cc1O)CCNC21CSC2c3c(OC(C)=O)c(C)c4c(c3C(COC1=O)N1C(O)C3Cc5cc(C)c(OC)c(O)c5C(C21)N3C)OCO4 : reported viability, T/C = ?
88.1

If you can, please state the reported viability, T/C value of Cc1sc2c(c1C)C(c1ccc(Cl)cc1)=NC(CC(=O)Nc1ccc(O)cc1)c1nnc(C)n1-2 (centres undefined) + COc1cc2c(cc1O)CCNC21CSC2c3c(OC(C)=O)c(C)c4c(c3C(COC1=O)N1C(O)C3Cc5cc(C)c(OC)c(O)c5C(C21)N3C)OCO4 .
5.83

Fill blank: measured viability, T/C of the molecule CNCc1ccc(-c2cc(-c3nc(-c4ccc(S(=O)(=O)C(C)C)cc4)cnc3N)on2)cc1 + COc1cc2c(cc1O)CCNC21CSC2c3c(OC(C)=O)c(C)c4c(c3C(COC1=O)N1C(O)C3Cc5cc(C)c(OC)c(O)c5C(C21)N3C)OCO4 is ____.
2.28

Please report the recorded viability, T/C for Cn1ncnc1[C@H]1c2n[nH]c(=O)c3cc(F)cc(c23)N[C@@H]1c1ccc(F)cc1 + COc1cc2c(cc1O)CCNC21CSC2c3c(OC(C)=O)c(C)c4c(c3C(COC1=O)N1C(O)C3Cc5cc(C)c(OC)c(O)c5C(C21)N3C)OCO4 .
16.5

---

# Test system: DMS 114 tumor spheroids, viability % test/control
# Procedure Summary: Anticancer human tumor DMS 114 cell line growth inhibition;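 note: luminescence used as a proxy for viable cells; spheroids exposed to compounds for 7 days before read-out; 100% = DMSO vehicle control viability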
# Details: second compound 94.9 pM; first compound 10 µM; active compounds read low; spheroids with HUVEC and MSC
For each record, write down the corresponding viability, T/C.

// returns reported viability, T/C for input CC1COCCN1c1cc(-c2ccnn2C)c2ccnc(-c3ccn[nH]3)c2n1 (configuration not stated) + COc1cc2c(cc1O)CCNC21CSC2c3c(OC(C)=O)c(C)c4c(c3C(COC1=O)N1C(O)C3Cc5cc(C)c(OC)c(O)c5C(C21)N3C)OCO4
8.67%

Requested field: viability, T/C. Item: [2H]c1nc(C)nc([2H])c1-c1cc(NC[C@@H](C)c2cccc3c(C(=O)NC)ccnc23)ncn1 + COc1cc2c(cc1O)CCNC21CSC2c3c(OC(C)=O)c(C)c4c(c3C(COC1=O)N1C(O)C3Cc5cc(C)c(OC)c(O)c5C(C21)N3C)OCO4
98%

---

Would you mind telling me the reported viability, T/C of each entry?
# System: DMS 114 tumor spheroids, viability % test/control
# Procedure Summary: Anticancer human tumor DMS 114 cell line growth inhibition;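 note: luminescence used as a proxy for viable cells; spheroids exposed to compounds for 7 days before read-out; 100% = DMSO vehicle control viability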
# Details: second compound 100 µM; first compound 3.16 µM; active compounds read low; spheroids with HUVEC and MSC
Report the figure in % without appending any unit label.

What viability, T/C appears in the records for this molecule with DMS 114 tumor spheroids, viability % test/control? [2H]c1nc(C)nc([2H])c1-c1cc(NC[C@@H](C)c2cccc3c(C(=O)NC)ccnc23)ncn1 + Cn1nnc2c(C(N)=O)ncn2c1=O
84.7

Form entry - test system: DMS 114 tumor spheroids, viability % test/control; read-out: viability, T/C; molecule: COc1cc(C)[nH]c(=O)c1CN1CCc2c(Cl)cc(C(OC)C3COC3)c(Cl)c2C1=O (stereo unspecified) + Cn1nnc2c(C(N)=O)ncn2c1=O
61.2

Write down the reported viability, T/C of COc1ccc([C@@H](O)c2cc(-c3ncnc4cc(N5CCOCC5)ccc34)c(F)cc2Cl)nn1 + Cn1nnc2c(C(N)=O)ncn2c1=O , test system: DMS 114 tumor spheroids, viability % test/control.
69.5

Checklist item: viability, T/C tested on DMS 114 tumor spheroids, viability % test/control, entry Cc1cc(C)c(CNC(=O)c2cc(-c3ccc(CN4CCOCC4)cc3)cc3c2cnn3C2CCCC2)c(=O)[nH]1 + Cn1nnc2c(C(N)=O)ncn2c1=O , value?
80.4

Test system DMS 114 tumor spheroids, viability % test/control; read-out viability, T/C; what value for CC1COCCN1c1cc(-c2ccnn2C)c2ccnc(-c3ccn[nH]3)c2n1 (stereo unspecified) + Cn1nnc2c(C(N)=O)ncn2c1=O ?
8.42

Give viability, T/C (DMS 114 tumor spheroids, viability % test/control) of the following molecule: CC(C)n1c(=O)n(C)c2cnc3cc(F)c(-c4ccc(OCCCN5CCCCC5)nc4)cc3c21 + Cn1nnc2c(C(N)=O)ncn2c1=O
58.8

---

# System: DMS 114 tumor spheroids, viability % test/control
# Procedure Summary: Anticancer human tumor DMS 114 cell line growth inhibition;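 note: luminescence used as a proxy for viable cells; spheroids exposed to compounds for 7 days before read-out; 100% = DMSO vehicle control viability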
# Details: second compound 0.03 µM; first compound 0.0949 µM; active compounds read low; spheroids with HUVEC and MSC
Kindly state viability, T/C for each of the entries shown.

What value of measured viability, T/C is listed for Cn1ncnc1[C@H]1c2n[nH]c(=O)c3cc(F)cc(c23)N[C@@H]1c1ccc(F)cc1 + CC[C@@]1(O)C(=O)OCc2c1cc1n(c2=O)Cc2cc3c(CN(C)C)c(O)ccc3nc2-1 ?
16.2%

Given the compound Cc1sc2c(c1C)C(c1ccc(Cl)cc1)=NC(CC(=O)Nc1ccc(O)cc1)c1nnc(C)n1-2 (centres undefined) + CC[C@@]1(O)C(=O)OCc2c1cc1n(c2=O)Cc2cc3c(CN(C)C)c(O)ccc3nc2-1 , what is its reported viability, T/C?
13.1%

Value lookup for viability, T/C; key = O=C(c1cc(Cc2n[nH]c(=O)c3ccccc23)ccc1F)N1CCN(C(=O)C2CC2)CC1 + CC[C@@]1(O)C(=O)OCc2c1cc1n(c2=O)Cc2cc3c(CN(C)C)c(O)ccc3nc2-1
24%

Which viability, T/C value belongs to CNCc1ccc(-c2cc(-c3nc(-c4ccc(S(=O)(=O)C(C)C)cc4)cnc3N)on2)cc1 + CC[C@@]1(O)C(=O)OCc2c1cc1n(c2=O)Cc2cc3c(CN(C)C)c(O)ccc3nc2-1 ?
23.7%
